assay: Inhibition of alpha-glucosidase at 0.1 mg/mL relative to 1-deoxynojirimycin
reported property: inhibition (%)

Take a look at these entries with their results.
compound	reported property	reading
CC(=O)O[C@@H]1C=C2C(=O)OC[C@]2(O)[C@@]2(C)CCCC(C)(C)[C@H]12	inhibition	20
CC(=O)O[C@@H]1C=C(C2O[C@@H]3OC(O)C4=C[C@@H](OC(C)=O)[C@H]5C(C)(C)CCC[C@]5(C)[C@]43O2)[C@](O)(C=O)[C@@]2(C)CCCC(C)(C)[C@H]12 (some centres not stated)	inhibition	83.7

A: CC(=O)O[C@@H]1[C@@H](O)C2=C(COC2=O)[C@@]2(C)CCCC(C)(C)[C@H]12
B: CC1(C)CCC[C@]2(C)[C@@H](C=O)C(C=O)=CC[C@@H]12
C: CC1(C)CCC[C@@]2(C)[C@H]1[C@H](O)C=C1C(=O)OC[C@@]12O
D: CC(=O)O[C@@H]1[C@@H](O)C2=C(C(=O)OC2)[C@@]2(C)CCCC(C)(C)[C@H]12
E: CC(=O)O[C@@H]1[C@@H](Cl)C2=C(COC2=O)[C@@]2(C)CCCC(C)(C)[C@H]12
Lookup: Please list these in order of increasing inhibition. Thank you! Output spec: labels arranged per the requested ranking.
Found: B, C, A, E, D
